Data provenance is ChEMBL document CHEMBL1144921.

# test_system: Opioid receptors; mu & delta (Homo sapiens) (UniProt P41143+P35372)
# Sequence (P35372 whole entry, looked up): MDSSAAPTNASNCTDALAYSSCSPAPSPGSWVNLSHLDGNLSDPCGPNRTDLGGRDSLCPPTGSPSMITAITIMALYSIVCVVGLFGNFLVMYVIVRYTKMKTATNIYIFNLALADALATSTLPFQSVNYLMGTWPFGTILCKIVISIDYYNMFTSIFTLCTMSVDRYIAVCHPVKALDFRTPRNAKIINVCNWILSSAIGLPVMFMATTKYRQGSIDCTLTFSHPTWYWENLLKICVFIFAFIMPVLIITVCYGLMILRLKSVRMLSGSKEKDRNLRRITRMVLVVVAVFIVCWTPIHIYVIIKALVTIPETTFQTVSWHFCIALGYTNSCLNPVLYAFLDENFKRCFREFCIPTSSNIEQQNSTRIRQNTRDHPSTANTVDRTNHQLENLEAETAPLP
# Sequence (P41143 whole entry, looked up): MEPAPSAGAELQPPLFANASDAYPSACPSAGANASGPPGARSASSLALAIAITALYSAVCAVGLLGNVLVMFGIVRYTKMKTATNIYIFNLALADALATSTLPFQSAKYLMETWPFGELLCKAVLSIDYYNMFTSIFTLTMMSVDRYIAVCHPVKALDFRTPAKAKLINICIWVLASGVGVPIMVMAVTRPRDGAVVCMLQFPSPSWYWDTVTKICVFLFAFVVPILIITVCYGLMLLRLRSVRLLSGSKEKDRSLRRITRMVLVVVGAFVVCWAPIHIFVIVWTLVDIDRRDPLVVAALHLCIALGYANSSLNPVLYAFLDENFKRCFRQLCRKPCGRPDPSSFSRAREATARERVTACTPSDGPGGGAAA
# protocol_details: Selectivity between mu opioid receptor and delta opioid receptor.
# Type: functional
Selectivity by entry:
measured_property: Selectivity

{"molecule": "CN1CC[C@]23c4c5ccc(O)c4O[C@H]2c2[nH]c4ccccc4c2C[C@@]3(NCCc2ccccc2)C1C5", "test_system": "Opioid receptors; mu & delta (Homo sapiens) (UniProt P41143+P35372)", "measured_property": "Selectivity", "assay_value": 1.5}
{"molecule": "CCCCCCC(=O)N[C@@]12Cc3c([nH]c4ccccc34)[C@@H]3Oc4c(O)ccc5c4[C@@]31CCN(C)C2C5", "test_system": "Opioid receptors; mu & delta (Homo sapiens) (UniProt P41143+P35372)", "measured_property": "Selectivity", "assay_value": 3.2}
{"molecule": "CCN[C@@]12Cc3c([nH]c4ccccc34)[C@@H]3Oc4c(O)ccc5c4[C@@]31CCN(C)C2C5", "test_system": "Opioid receptors; mu & delta (Homo sapiens) (UniProt P41143+P35372)", "measured_property": "Selectivity", "assay_value": 105}
{"molecule": "CCCCC(=O)N[C@@]12Cc3c([nH]c4ccccc34)[C@@H]3Oc4c(O)ccc5c4[C@@]31CCN(C)C2C5", "test_system": "Opioid receptors; mu & delta (Homo sapiens) (UniProt P41143+P35372)", "measured_property": "Selectivity", "assay_value": 25}
{"molecule": "CN1CC[C@]23c4c5ccc(O)c4O[C@H]2c2[nH]c4ccccc4c2C[C@@]3(NC(=O)Cc2ccccc2)C1C5", "test_system": "Opioid receptors; mu & delta (Homo sapiens) (UniProt P41143+P35372)", "measured_property": "Selectivity", "assay_value": 4.5}
{"molecule": "CN1CC[C@]23c4c5ccc(O)c4O[C@H]2c2[nH]c4ccccc4c2C[C@@]3(NCCCc2ccccc2)C1C5", "test_system": "Opioid receptors; mu & delta (Homo sapiens) (UniProt P41143+P35372)", "measured_property": "Selectivity", "assay_value": 5}
{"molecule": "CN1CC[C@]23c4c5ccc(O)c4O[C@H]2c2[nH]c4ccccc4c2C[C@@]3(NC(=O)CCc2ccccc2)C1C5", "test_system": "Opioid receptors; mu & delta (Homo sapiens) (UniProt P41143+P35372)", "measured_property": "Selectivity", "assay_value": 2.3}
{"molecule": "CN1CC[C@]23c4c5ccc(O)c4O[C@H]2c2[nH]c4ccccc4c2C[C@@]3(O)[C@H]1C5 [OXYMORPHINDOLE]", "test_system": "Opioid receptors; mu & delta (Homo sapiens) (UniProt P41143+P35372)", "measured_property": "Selectivity", "assay_value": 284}
{"molecule": "CN1CC[C@]23c4c5ccc(O)c4O[C@H]2c2[nH]c4ccccc4c2C[C@@]3(CCCc2ccccc2)C1C5", "test_system": "Opioid receptors; mu & delta (Homo sapiens) (UniProt P41143+P35372)", "measured_property": "Selectivity", "assay_value": 0.2}
{"molecule": "CCCCN[C@@]12Cc3c([nH]c4ccccc34)[C@@H]3Oc4c(O)ccc5c4[C@@]31CCN(C)C2C5", "test_system": "Opioid receptors; mu & delta (Homo sapiens) (UniProt P41143+P35372)", "measured_property": "Selectivity", "assay_value": 27}
{"molecule": "CN1CC[C@]23c4c5ccc(O)c4O[C@H]2c2[nH]c4ccccc4c2C[C@@]3(N)C1C5", "test_system": "Opioid receptors; mu & delta (Homo sapiens) (UniProt P41143+P35372)", "measured_property": "Selectivity", "assay_value": 365}
